Hey, just so you know, these numbers are from patent US20120165319A1.

- System: IL-1β, human peripheral blood mononuclear cells (PBMC)
- ASSAY COMMENT: PBMC cell assay: IL-1β assay with human PBMC or enriched adherent mononuclear cells, LPS-stimulated
- Assay type: cell-based
- MEASUREMENT CONTEXT: Homo sapiens, PBMC, Table 17
pIC50: −log10 of the molar value.

{"columns": ["MOLECULE", "pIC50"],
 "data": [
  ["CC(=O)N1C[C@H](NC(=O)C(=O)c2c(C)cc(C)cc2C)C(=O)N(CC(=O)N[C@H](C=O)CC(=O)O)c2ccccc21", 5.68],
  ["O=C[C@H](CC(=O)O)NC(=O)CN1C(=O)[C@@H](NC(=O)c2ccc3c(c2)OCO3)CN(C(=O)CO)c2ccccc21", 5.47],
  ["O=C[C@H](CC(=O)O)NC(=O)[C@@H]1CCCN2C(=O)CCN(NC(=O)Cc3ccccc3)C(=O)N12", 5.22],
  ["COc1cccc(NC(=O)NN2CCC(=O)N3CCC[C@@H](C(=O)N[C@H](C=O)CC(=O)O)N3C2=O)c1 [Compound 265c]", 5.35],
  ["O=C[C@H](CC(=O)O)NC(=O)[C@@H]1CCCN2C(=O)CC[C@H](NC(=O)c3cc(Cl)cc(Cl)c3)C(=O)N12 [Compound 214j]", 5.60],
  ["COC(=O)N[C@H]1CCC(=O)N2CCC[C@@H](C(=O)N[C@@H](CC(=O)O)C(=O)CSc3nnnn3-c3ccccc3)N2C1=O [Compound 280c]", 5.00]
]}

* * *

- ASSAY COMMENT: Pharmacokinetic studies in the mouse (i.v. clearance, plasma levels)
- Type: in vivo
- MEASUREMENT CONTEXT: CD-1, plasma, iv; mouse, 25 mg/kg

{"columns": ["MOLECULE", "RELATION OPERATOR", "clearance [mL/min/kg]"],
 "data": [
  ["CC(=O)Nc1cccc(C(=O)N[C@H]2CCC(=O)N3CCC[C@@H](C(=O)N[C@H](C=O)CC(=O)O)N3C2=O)c1", "=", 18],
  ["O=C(O)C[C@H](NC(=O)[C@@H]1CCCN2C(=O)CC[C@H](NC(=O)c3ccccc3)C(=O)N12)C(=O)CSCc1ccccc1Cl [Compound 226e]", "=", 109],
  ["COC(=O)N1C[C@H](NC(=O)c2ccccc2)C(=O)N(CC(=O)N[C@H](C=O)CC(=O)O)c2ccccc21 [Compound 605j]", "=", 71],
  ["N#C[C@H](CC(=O)O)NC(=O)[C@@H]1CCCN2C(=O)CC[C@H](NC(=O)c3ccccc3)C(=O)N12 [Compound 232e]", "=", 22],
  ["O=C(O)C[C@H](NC(=O)[C@@H]1CCCN2C(=O)CC[C@H](NC(=O)CCc3ccccc3)C(=O)N12)C(=O)COC(=O)c1c(Cl)cccc1Cl", "=", 93],
  ["O=C[C@H](CC(=O)O)NC(=O)[C@@H]1CCCN2CCC[C@H](NC(=O)CCc3ccccc3)C(=O)N12 [Compound 47b]", "=", 338],
  ["Cc1ccccc1C(=O)N[C@H]1CCC(=O)N2CCC[C@@H](C(=O)N[C@H](C=O)CC(=O)O)N2C1=O", "=", 64],
  ["O=C[C@H](CC(=O)O)NC(=O)[C@@H]1CCCN2C(=O)CCN(NC(=O)c3ccccc3)C(=O)N12", "=", 23],
  ["COC(=O)N[C@H]1CCC(=O)N2CCC[C@@H](C(=O)N[C@@H](CC(=O)O)C(=O)COC(=O)c3c(C)cccc3C)N2C1=O", "=", 130],
  ["O=C(O)C[C@H](NC(=O)[C@@H]1CCCN2C(=O)CC[C@H](NC(=O)c3ccccc3)C(=O)N12)C(=O)COC(=O)c1c(Cl)cccc1Cl [Compound 217e]", ">", 50],
  ["CC(=O)N1C[C@H](NC(=O)c2ccccc2)C(=O)N(CC(=O)N[C@H](C=O)CC(=O)O)c2ccccc21 [Compound 605d]", "=", 33],
  ["O=C[C@H](CC(=O)O)NC(=O)[C@@H]1CCCN2C(=O)CC[C@H](NC(=O)c3ccsc3)C(=O)N12", "=", 32],
  ["O=C[C@H](CC(=O)O)NC(=O)[C@@H]1CCCN2C(=O)CC[C@H](NC(=O)CCc3ccccc3)C(=O)N12 [Compound 47a]", "=", 79]
]}
